System: Bod3-SPM
Assay: Sphingolipid metabolism from Bodipy-C3-ceramide in TSU-PR1 cells: Bod3-SPM
Type: cell-based
Conditions: Homo sapiens; TSU-PR1, 3 hours, Fig. 5; read-out: reduction of Bod3-SPM, IC50
Description: In order to examine the effect of the different compounds on sphingolipids metabolism, different cell lines were incubated with increasing concentrations of different compounds of the invention in the presence of 2.5 µM Bodipy-C3-ceramide that was added to the culture medium as a solution in dimethylsulfoxide (not exceeding 0.1% DMSO of the final volium). After 3 hours, cells and medium were collected and centrifuged. […]
measure-name: IC50

Q) Please report IC50 for the following compound: "CCCCCCCCCCCCCCN[C@H](CO)[C@H](O)c1ccc([N+](=O)[O-])cc1"
A) ~5 µM
